Hello, the source for this data is paper PMC9334479, in case you need it.

System: plasma protein
Protocol notes: Plasma protein binding rate by equilibrium dialysis
Format: in vitro ADME
Test settings: human, patient plasma, iv, pH 7.4
Where a SMILES comes first, the peptide text is derived from it.
Measured fraction unbound at 5 h values are reported for all entries that follow.
Number, no unit, nothing else.

{"Compound": "CC(C)CCCCC(=O)N[C@@H](CCN)C(=O)N[C@H](C(=O)N[C@@H](CCN)C(=O)N[C@H]1CCNC(=O)[C@H]([C@@H](C)O)NC(=O)[C@H](CCN)NC(=O)[C@H](CCN)NC(=O)[C@H](CC(C)C)NC(=O)[C@@H](Cc2ccccc2)NC(=O)[C@H](CCN)NC1=O)[C@@H](C)O [PMB2, polymyxin B2] (HELM PEPTIDE1{[CC(C)CCCCC(=O)[*:2]].[Dab].T.[Dab].[Dab].[Dab].[dF].L.[Dab].[Dab].T}$PEPTIDE1,PEPTIDE1,5:R3-11:R2$$$V2.0)", "Reading": 0.215}

Per the record, CC[C@H](C)CCCCC(=O)N[C@@H](CCN)C(=O)N[C@H](C(=O)N[C@@H](CCN)C(=O)N[C@H]1CCNC(=O)[C@H]([C@@H](C)O)NC(=O)[C@H](CCN)NC(=O)[C@H](CCN)NC(=O)[C@H](CC(C)C)NC(=O)[C@@H](Cc2ccccc2)NC(=O)[C@H](CCN)NC1=O)[C@@H](C)O [PMB1, polymyxin B1] (HELM PEPTIDE1{[CC[C@H](C)CCCCC(=O)[*:2]].[Dab].T.[Dab].[Dab].[Dab].[dF].L.[Dab].[Dab].T}$PEPTIDE1,PEPTIDE1,5:R3-11:R2$$$V2.0) has fraction unbound at 5 h of 0.055

---

Test system: plasma protein
Protocol notes: Plasma protein binding rate by equilibrium dialysis
Format: in vitro ADME
Test settings: human, patient plasma, iv, pH 7.4, Protein binding rate, Cmin sample, non-AKI group N = 64; equilibrium dialysis, phosphate buffer pH 7.4, 37 °C, 5 h, LC-MS/MS; median (IQR)
Where a SMILES comes first, the peptide text is derived from it.
Measured fraction unbound at 5 h values are reported for all entries that follow.

Per the record, CC[C@H](C)CCCCC(=O)N[C@@H](CCN)C(=O)N[C@H](C(=O)N[C@@H](CCN)C(=O)N[C@H]1CCNC(=O)[C@H]([C@@H](C)O)NC(=O)[C@H](CCN)NC(=O)[C@H](CCN)NC(=O)[C@H](CC(C)C)NC(=O)[C@@H](Cc2ccccc2)NC(=O)[C@H](CCN)NC1=O)[C@@H](C)O [PMB1, polymyxin B1] (HELM PEPTIDE1{[CC[C@H](C)CCCCC(=O)[*:2]].[Dab].T.[Dab].[Dab].[Dab].[dF].L.[Dab].[Dab].T}$PEPTIDE1,PEPTIDE1,5:R3-11:R2$$$V2.0) has fraction unbound at 5 h of 0.057

Per the record, CC(C)CCCCC(=O)N[C@@H](CCN)C(=O)N[C@H](C(=O)N[C@@H](CCN)C(=O)N[C@H]1CCNC(=O)[C@H]([C@@H](C)O)NC(=O)[C@H](CCN)NC(=O)[C@H](CCN)NC(=O)[C@H](CC(C)C)NC(=O)[C@@H](Cc2ccccc2)NC(=O)[C@H](CCN)NC1=O)[C@@H](C)O [PMB2, polymyxin B2] (HELM PEPTIDE1{[CC(C)CCCCC(=O)[*:2]].[Dab].T.[Dab].[Dab].[Dab].[dF].L.[Dab].[Dab].T}$PEPTIDE1,PEPTIDE1,5:R3-11:R2$$$V2.0) has fraction unbound at 5 h of 0.221
